# methodNotes: in vivo screen APCC: blood cholesterol in rats fed overnight a high fat, high cholesterol (PCC) diet
# assayConditions: male Sprague-Dawley rats, dosed at 4 PM, PCC diet with 0.5% cholic acid overnight, blood sampled 8 AM, dose not given
readoutName: % Change (mg/dl) in cholesterol (%)
Numbers only, in %.

Worked cases, % Change (mg/dl) in cholesterol given:
CC(C)c1cccc(C(C)C)c1OS(=O)(=O)NC(=O)C(c1ccccc1)c1ccccc1 [Example 27]
-72
CC(C)c1cccc(C(C)C)c1OS(=O)(=O)NC(=O)C1CCc2ccccc2C1 (stereo not drawn) [Example 29]
-9
CC(C)c1cccc(C(C)C)c1OS(=O)(=O)NC(=O)C1c2ccccc2Oc2ccccc21 [Example 36]
-6
CC(C)c1cccc(C(C)C)c1OS(=O)(=O)NC(=O)Cc1ccsc1 [Example 20]
-19

For the 2 compounds below, give their % Change (mg/dl) in cholesterol values.
1. CC(C)c1cccc(C(C)C)c1OCC(=O)NS(=O)(=O)Oc1c(C(C)C)cccc1C(C)C [Example 47]
2. CC(C)c1cc(C(C)C)c(C(O)C(=O)NS(=O)(=O)Oc2c(C(C)C)cccc2C(C)C)c(C(C)C)c1 (stereo not drawn) [Example 43]

OUTPUT:
-46
-45

For the 5 compounds below, give their % Change (mg/dl) in cholesterol values.
1. CC(C)c1cccc(C(C)C)c1OS(=O)(=O)NC(=O)Cc1ccccc1 [Example 7]
2. CC(C)c1cc(C(C)C)c(OS(=O)(=O)NC(=O)Cc2c(C(C)C)cccc2C(C)C)c(C(C)C)c1 [Example 3]
3. CC(C)c1cccc(C(C)C)c1OS(=O)(=O)NC(=O)C1c2ccccc2-c2ccccc21 [Example 37]
4. CC(C)c1cccc(C(C)C)c1OS(=O)(=O)NC(=O)C(c1ccccc1)C1CCCCC1 (stereo not drawn) [Example 33]
5. Cc1cc(C)c(CC(=O)NS(=O)(=O)Oc2c(C(C)C)cccc2C(C)C)c(C)c1 [Example 18]

OUTPUT:
-17
-79
-50
-63
-47

---

Exercise: for every item that follows, state its recorded IC50.
# tgt: acyl-CoA:cholesterol acyltransferase (ACAT)
# methodNotes: in vitro ACAT inhibition (LAI): radiolabeled cholesterol oleate formed from radiolabeled oleic acid in rat liver microsomes
# Format: biochemical
# assayConditions: concentration required to inhibit enzyme activity by 50%
Numbers only, in µM.

CCC(C)C(C(=O)NS(=O)(=O)Oc1c(C(C)C)cccc1C(C)C)c1ccccc1 (centres unmarked)
3.3
CC(C)c1cccc(C(C)C)c1OS(=O)(=O)NC(=O)C(=O)c1ccccc1
50
CC(C)c1cccc(C(C)C)c1OS(=O)(=O)NC(=O)CC12CC3CC(CC(C3)C1)C2
13
CC(C)c1cccc(C(C)C)c1OS(=O)(=O)NC(=O)C(C)c1ccccc1 (centres unmarked)
26
CC(C)c1cccc(C(C)C)c1OS(=O)(=O)NC(=O)Cc1ccccc1C(F)(F)F
12

For the 3 molecules below, give their IC50 values.
1. CC(C)c1cccc(C(C)C)c1OS(=O)(=O)NC(=O)C(c1ccccc1)(c1ccccc1)c1ccccc1
2. CC(C)c1cccc(C(C)C)c1OS(=O)(=O)NC(=O)C1CCc2ccccc2C1 (centres unmarked)
3. CC(C)c1cc(C(C)C)c(OS(=O)(=O)NC(=O)Cc2c(C(C)C)cccc2C(C)C)c(C(C)C)c1

OUTPUT:
6
15
11

---

Exercise: for every item that follows, state its recorded % Change (mg/dl) in cholesterol.
# methodNotes: in vivo screen APCC: blood cholesterol in rats fed overnight a high fat, high cholesterol (PCC) diet
# assayConditions: male Sprague-Dawley rats, dosed at 4 PM, PCC diet with 0.5% cholic acid overnight, blood sampled 8 AM, dose not given
Answers are plain numbers, in %.

Worked cases, % Change (mg/dl) in cholesterol given:
CCCCCCCCCC(=O)NS(=O)(=O)Oc1c(C(C)C)cccc1C(C)C
-26
CC(=O)OC(C(=O)NS(=O)(=O)Oc1c(C(C)C)cccc1C(C)C)c1c(C(C)C)cc(C(C)C)cc1C(C)C (stereo not shown)
-25
CC(C)c1cc(C(C)C)c(CC(=O)NS(=O)(=O)Oc2c(-c3ccccc3)cccc2-c2ccccc2)c(C(C)C)c1
-73
COc1cc(OC)c(CC(=O)NS(=O)(=O)Oc2c(C(C)C)cccc2C(C)C)c(OC)c1
-40
CC(C)c1cccc(C(C)C)c1OS(=O)(=O)NC(=O)Cc1c(Cl)cccc1Cl
-12
CC(C)c1cc(C(C)C)c(C(F)C(=O)NS(=O)(=O)Oc2c(C(C)C)cccc2C(C)C)c(C(C)C)c1 (stereo not shown)
-74

For the 3 compounds below, give their % Change (mg/dl) in cholesterol values.
1. CC(C)c1cccc(C(C)C)c1OS(=O)(=O)NC(=O)C(c1ccccc1)(c1ccccc1)c1ccccc1
2. CC(C)c1cc(C(C)C)c(CC(=O)NS(=O)(=O)Oc2c(C(C)C)cccc2C(C)C)c(C(C)C)c1
3. CC(C)c1cccc(C(C)C)c1OS(=O)(=O)NC(=O)C(C)c1ccccc1 (stereo not shown)

OUTPUT:
1. -30
2. -73
3. -24

For the 2 compounds below, give their % Change (mg/dl) in cholesterol values.
1. CC(C)c1cccc(C(C)C)c1OS(=O)(=O)NC(=O)Cc1ccccc1C(F)(F)F
2. CC(C)c1cccc(C(C)C)c1CC(=O)NS(=O)(=O)Oc1c(C(C)C)cccc1C(C)C

OUTPUT:
1. -19
2. -63

For the 4 compounds below, give their % Change (mg/dl) in cholesterol values.
1. CC(C)c1cccc(C(C)C)c1OS(=O)(=O)NC(=O)C(C)(c1ccccc1)c1ccccc1
2. CC(C)c1cccc(C(C)C)c1OS(=O)(=O)NC(=O)Cc1cccs1
3. CCC(C)C(C(=O)NS(=O)(=O)Oc1c(C(C)C)cccc1C(C)C)c1ccccc1 (stereo not shown)
4. CC(C)c1cc(C(C)C)c(CCC(=O)NS(=O)(=O)Oc2c(C(C)C)cccc2C(C)C)c(C(C)C)c1

OUTPUT:
1. -67
2. -20
3. -30
4. -73

---

# tgt: acyl-CoA:cholesterol acyltransferase (ACAT)
# methodNotes: in vitro ACAT inhibition (LAI): radiolabeled cholesterol oleate formed from radiolabeled oleic acid in rat liver microsomes
# Format: biochemical
# assayConditions: concentration required to inhibit enzyme activity by 50%, sodium salt
Where a name gives a salt, the structure may show the parent alone.
readoutName: IC50 (µM)
One number for each entry, in µM.

CCC(C)C(C(=O)NS(=O)(=O)Oc1c(C(C)C)cccc1C(C)C)c1ccccc1 (centres unmarked) [Example 45, sodium salt]
5.6

Now for another entry.
INPUT: Name the recorded IC50 of the item CC(C)c1cccc(C(C)C)c1CC(=O)NS(=O)(=O)Oc1c(C(C)C)cccc1C(C)C [Example 2, sodium salt] in your answer.
OUTPUT: 12

---

# tgt: acyl-CoA:cholesterol acyltransferase (ACAT)
# methodNotes: in vitro ACAT inhibition (LAI): radiolabeled cholesterol oleate formed from radiolabeled oleic acid in rat liver microsomes
# Assay type: biochemical
# assayConditions: concentration required to inhibit enzyme activity by 50%
readoutName: pIC50
One number for each entry, as −log10 of the molar value.

Worked cases, pIC50 given:
CC(C)c1cccc(C(C)C)c1CC(=O)NS(=O)(=O)Oc1c(C(C)C)cccc1C(C)C
5.01
CC(C)c1cc(C(C)C)c(C(O)C(=O)NS(=O)(=O)Oc2c(C(C)C)cccc2C(C)C)c(C(C)C)c1 (stereo not shown)
4.51
COc1ccccc1CC(=O)NS(=O)(=O)Oc1c(C(C)C)cccc1C(C)C
4.26
CC(C)c1cc(C(C)C)c(CCC(=O)NS(=O)(=O)Oc2c(C(C)C)cccc2C(C)C)c(C(C)C)c1
4.55
CC(C)c1cccc(C(C)C)c1OCC(=O)NS(=O)(=O)Oc1c(C(C)C)cccc1C(C)C
4.42
CC(C)c1cccc(C(C)C)c1OS(=O)(=O)NC(=O)CCc1ccccc1
4.51
CC(C)c1cc(C(C)C)c(CC(=O)NS(=O)(=O)Oc2c(-c3ccccc3)cccc2-c2ccccc2)c(C(C)C)c1
5.08
CC(=O)OC(C(=O)NS(=O)(=O)Oc1c(C(C)C)cccc1C(C)C)c1c(C(C)C)cc(C(C)C)cc1C(C)C (stereo not shown)
5.15

For the 6 compounds below, give their pIC50 values.
1. CC(C)c1cccc(C(C)C)c1OS(=O)(=O)NC(=O)C1c2ccccc2Oc2ccccc21
2. CC(C)c1cccc(C(C)C)c1OS(=O)(=O)NC(=O)C1c2ccccc2-c2ccccc21
3. CC(C)c1cc(C(C)C)c(C=CC(=O)NS(=O)(=O)Oc2c(C(C)C)cccc2C(C)C)c(C(C)C)c1
4. CC(C)c1cccc(C(C)C)c1OS(=O)(=O)NC(=O)C(c1ccccc1)C1CCCCC1 (stereo not shown)
5. CC(C)c1cccc(C(C)C)c1OS(=O)(=O)NC(=O)Cc1ccccc1
6. CC(C)c1cccc(C(C)C)c1OS(=O)(=O)NC(=O)C(C)(c1ccccc1)c1ccccc1

OUTPUT:
4.66
4.80
4.49
5.03
4.33
5.11
